Target entity: Glutamate receptor ionotropic, NMDA 1 (Rattus norvegicus, UniProt P35439)
Experimental protocol: Affinity measured by using [3H]5,7-dichlorokynurenic acid (DCKA) for the glycine binding site of NMDA receptor
Field 'label' (enum: class 1 / class 0). Set to class 1 when Ki is strictly under 0.03 µM; else class 0.

{"columns": ["Compound", "Class assignment"],
 "data": [
  ["CC[C@H]1Cc2cc(Br)cc3[nH]c(=O)c(=O)n(c23)[C@@H]1CC(=O)Nc1ccccc1", "class 1"],
  ["CC(C)[C@H]1Cc2cc(Br)cc3[nH]c(=O)c(=O)n(c23)[C@@H]1CC(=O)O", "class 1"],
  ["CC(C(=O)O)[C@@H]1CCc2cc(Br)cc3[nH]c(=O)c(=O)n1c23 (stereo in doubt; 23a)", "class 0"],
  ["C[C@H]1C[C@@H](CC(=O)O)n2c(=O)c(=O)[nH]c3cc(Br)cc1c32", "class 0"],
  ["C[C@H]1Cc2cc(Br)cc3[nH]c(=O)c(=O)n(c23)[C@@H]1CC(=O)Nc1ccccc1", "class 1"],
  ["O=C(C[C@@H]1CCc2cc(Br)cc3[nH]c(=O)c(=O)n1c23)Nc1ccccc1", "class 1"],
  ["C[C@@]1(CC(=O)Nc2ccccc2)CCc2cc(Br)cc3[nH]c(=O)c(=O)n1c23", "class 0"],
  ["O=C(O)C[C@@H]1CCc2cc(Br)cc3[nH]c(=O)c(=O)n1c23", "class 1"],
  ["C[C@@H]1Cc2cc(Br)cc3[nH]c(=O)c(=O)n(c23)[C@@H]1CC(=O)Nc1ccccc1", "class 1"],
  ["C[C@@H]1C[C@@H](CC(=O)O)n2c(=O)c(=O)[nH]c3cc(Br)cc1c32", "class 0"],
  ["C[C@H]1C[C@@H](CC(=O)Nc2ccccc2)n2c(=O)c(=O)[nH]c3cc(Br)cc1c32", "class 1"],
  ["C[C@@]1(CC(=O)O)CCc2cc(Br)cc3[nH]c(=O)c(=O)n1c23", "class 0"],
  ["CC[C@H]1Cc2cc(Br)cc3[nH]c(=O)c(=O)n(c23)[C@@H]1CC(=O)O", "class 1"],
  ["CC(C(=O)O)[C@@H]1CCc2cc(Br)cc3[nH]c(=O)c(=O)n1c23 (stereo in doubt; 24a)", "class 0"]
]}

====

Target entity: Glutamate receptor ionotropic, NMDA 1 (Rattus norvegicus, UniProt P35439)
Experimental protocol: Affinity measured by using [3H]5,7-dichlorokynurenic acid (DCKA) for the glycine binding site of NMDA receptor
Measured Ki, listed per entry.

{"columns": ["Compound", "Ki (nM)"],
 "data": [
  ["C[C@H]1Cc2cc(Br)cc3[nH]c(=O)c(=O)n(c23)[C@@H]1CC(=O)O", 3.3],
  ["C[C@@H]1C[C@@H](CC(=O)Nc2ccccc2)n2c(=O)c(=O)[nH]c3cc(Br)cc1c32", 7.4],
  ["CC(C(=O)Nc1ccccc1)[C@@H]1CCc2cc(Br)cc3[nH]c(=O)c(=O)n1c23 (stereo in doubt; 24b)", 590],
  ["CC(C(=O)Nc1ccccc1)[C@@H]1CCc2cc(Br)cc3[nH]c(=O)c(=O)n1c23 (stereo in doubt; 23b)", 665]
]}
